All values here come from ChEMBL document CHEMBL4715855.

- Test system: OVCAR-3
- experiment.notes: Antiproliferative activity against human OVCAR-3 cells assessed as cell growth inhibition measured after 48 hrs by sulforhodamine B assay
- Format: functional, cell-based
- condition.info: OVCAR-3, 48 h
endpoint: IC50 (µM)
Answer format: numeric, µM implied, no suffix.

- smiles.str: "Cc1c(-c2ccc(-c3ccccc3F)cc2)nc2ccc(F)cc2c1C(=O)O"
  endpoint: "IC50"
  data.value: 3.72

# input for lookup
Short answer for CCNC(=O)Nc1ccc(S(=O)(=O)Oc2ccccc2CC)cc1 : IC50 was 6.61

###

- Tested on: HCT-15
- experiment.notes: Antiproliferative activity against human HCT-15 cells assessed as cell growth inhibition measured after 48 hrs by sulforhodamine B assay
- Format: functional, cell-based
- condition.info: HCT-15, 48 h
endpoint: IC50 (nM)
Answer format: numeric, nM implied, no suffix.

- smiles.str: "CCNC(=O)Nc1ccc(S(=O)(=O)Oc2ccccc2CC)cc1"
  assayed.target: "HCT-15"
  IC50, nM: 251

# input for lookup
Short answer for Cc1c(-c2ccc(-c3ccccc3F)cc2)nc2ccc(F)cc2c1C(=O)O : IC50 was 56.2

###

- Tested on: HOP-62
- experiment.notes: Antiproliferative activity against human HOP-62 cells assessed as cell growth inhibition measured after 48 hrs by sulforhodamine B assay
- Type: functional, cell-based
- condition.info: HOP-62, 48 h
endpoint: pIC50
Lab note: report pIC50 as minus log10 of the concentration in molar units, number only.

- smiles.str: "Cc1c(-c2ccc(-c3ccccc3F)cc2)nc2ccc(F)cc2c1C(=O)O"
  endpoint: "pIC50"
  data.value: 5.96

# input for lookup
The molecule CCNC(=O)Nc1ccc(S(=O)(=O)Oc2ccccc2CC)cc1 on HOP-62: pIC50 was 4.84

###

- Test system: DU-145
- experiment.notes: Antiproliferative activity against human DU-145 cells assessed as cell growth inhibition measured after 48 hrs by sulforhodamine B assay
- Type: functional, cell-based
- condition.info: DU-145, 48 h
endpoint: IC50 (nM)
Answer format: numeric, nM implied, no suffix.

- molecule: "CCNC(=O)Nc1ccc(S(=O)(=O)Oc2ccccc2CC)cc1"
  assayed.target: "DU-145"
  IC50 / nM: 1230

# input for lookup
Short answer for Cc1c(-c2ccc(-c3ccccc3F)cc2)nc2ccc(F)cc2c1C(=O)O [BREQUINAR] : IC50 was 263

###

Each record here notes measured IC50.
- System: A549
- experiment.notes: Antiproliferative activity against human A549/ATCC cells assessed as cell growth inhibition measured after 48 hrs by sulforhodamine B assay
- Type: functional, cell-based
- condition.info: A549, 48 h
Answer format: numeric, nM implied, no suffix.

- smiles.str: "Cc1c(-c2ccc(-c3ccccc3F)cc2)nc2ccc(F)cc2c1C(=O)O"
  IC50 / nM: 234

# input for lookup
Short answer for CCNC(=O)Nc1ccc(S(=O)(=O)Oc2ccccc2CC)cc1 : IC50 was 955

###

- Test system: UACC-257
- experiment.notes: Antiproliferative activity against human UACC-257 cells assessed as cell growth inhibition measured after 48 hrs by sulforhodamine B assay
- Format: functional, cell-based
- condition.info: UACC-257, 48 h
endpoint: pIC50
Lab note: report pIC50 as minus log10 of the concentration in molar units, number only.

- smiles.str: "CCNC(=O)Nc1ccc(S(=O)(=O)Oc2ccccc2CC)cc1"
  data.value: 4.88

# input for lookup
Short answer for Cc1c(-c2ccc(-c3ccccc3F)cc2)nc2ccc(F)cc2c1C(=O)O : pIC50 was 4.90

###

- System: NCI-H322M
- experiment.notes: Antiproliferative activity against human NCI-H322M cells assessed as cell growth inhibition measured after 48 hrs by sulforhodamine B assay
- Format: functional, cell-based
endpoint: IC50 (µM)
Answer format: numeric, µM implied, no suffix.

- smiles.str: "Cc1c(-c2ccc(-c3ccccc3F)cc2)nc2ccc(F)cc2c1C(=O)O"
  assayed.target: "NCI-H322M"
  endpoint: "IC50"
  unit.label: "µM"
  data.value: 15.1

Short answer for CCNC(=O)Nc1ccc(S(=O)(=O)Oc2ccccc2CC)cc1 : IC50 was 12.9

###

- Tested on: MDA-MB-435
- experiment.notes: Antiproliferative activity against human MDA-MB-435 cells assessed as cell growth inhibition measured after 48 hrs by sulforhodamine B assay
- Assay type: functional, cell-based
- condition.info: MDA-MB-435, 48 h
Each record here notes measured pIC50.
Lab note: report pIC50 as minus log10 of the concentration in molar units, number only.

- smiles.str: "CCNC(=O)Nc1ccc(S(=O)(=O)Oc2ccccc2CC)cc1"
  data.value: 5.35

Short answer for Cc1c(-c2ccc(-c3ccccc3F)cc2)nc2ccc(F)cc2c1C(=O)O : pIC50 was 6.43

###

Each record here notes measured IC50.
- Tested on: K562
- experiment.notes: Antiproliferative activity against human K562 cells assessed as cell growth inhibition incubated for 48 hrs by sulforhodamine B assay
- Format: functional, cell-based
- condition.info: K562, 48 h
Answer format: numeric, µM implied, no suffix.

- smiles.str: "CCNC(=O)Nc1ccc(S(=O)(=O)Oc2ccccc2CC)cc1"
  assayed.target: "K562"
  IC50 [µM]: 0.282

Short answer for Cc1c(-c2ccc(-c3ccccc3F)cc2)nc2ccc(F)cc2c1C(=O)O : IC50 was 0.145

###

- Test system: A498
- experiment.notes: Antiproliferative activity against human A498 cells assessed as cell growth inhibition measured after 48 hrs by sulforhodamine B assay
- Type: functional, cell-based
- condition.info: A498, 48 h
Each record here notes measured pIC50.
Lab note: report pIC50 as minus log10 of the concentration in molar units, number only.

- compound: "Cc1c(-c2ccc(-c3ccccc3F)cc2)nc2ccc(F)cc2c1C(=O)O [BREQUINAR]"
  assayed.target: "A498"
  pIC50: 4.30

# input for lookup
Short answer for CCNC(=O)Nc1ccc(S(=O)(=O)Oc2ccccc2CC)cc1 : pIC50 was 5.23

###

- System: RPMI-8226
- experiment.notes: Antiproliferative activity against human RPMI-8226 cells assessed as cell growth inhibition measured after 48 hrs by sulforhodamine B assay
- Format: functional, cell-based
- condition.info: RPMI-8226, 48 h
endpoint: IC50 (nM)
Answer format: numeric, nM implied, no suffix.

- molecule: "CCNC(=O)Nc1ccc(S(=O)(=O)Oc2ccccc2CC)cc1"
  assayed.target: "RPMI-8226"
  endpoint: "IC50"
  unit.label: "nM"
  data.value: 1380

# input for lookup
Short answer for Cc1c(-c2ccc(-c3ccccc3F)cc2)nc2ccc(F)cc2c1C(=O)O [BREQUINAR] : IC50 was 372

###

- System: NCI-H460
- experiment.notes: Antiproliferative activity against human NCI-H460 cells assessed as cell growth inhibition measured after 48 hrs by sulforhodamine B assay
- Format: functional, cell-based
- condition.info: NCI-H460, 48 h
endpoint: IC50 (µM)
Answer format: numeric, µM implied, no suffix.

- smiles.str: "Cc1c(-c2ccc(-c3ccccc3F)cc2)nc2ccc(F)cc2c1C(=O)O"
  assayed.target: "NCI-H460"
  IC50, µM: 0.129

# input for lookup
Short answer for CCNC(=O)Nc1ccc(S(=O)(=O)Oc2ccccc2CC)cc1 : IC50 was 0.427

###

Each record here notes measured IC50.
- System: SF-268
- experiment.notes: Antiproliferative activity against human SF-268 cells assessed as cell growth inhibition measured after 48 hrs by sulforhodamine B assay
- Format: functional, cell-based
- condition.info: SF-268, 48 h

- compound: "Cc1c(-c2ccc(-c3ccccc3F)cc2)nc2ccc(F)cc2c1C(=O)O [BREQUINAR]"
  IC50: "0.372 µM"

# input for lookup
Short answer for CCNC(=O)Nc1ccc(S(=O)(=O)Oc2ccccc2CC)cc1 : IC50 was 2.88 µM

###

- System: MCF7
- experiment.notes: Antiproliferative activity against human MCF7 cells assessed as cell growth inhibition measured after 48 hrs in presence of uridine by SRB assay
- Assay type: functional, cell-based
- condition.info: MCF7, 48 h
endpoint: IC50 (µM)
Answer format: numeric, µM implied, no suffix.

Example compounds with recorded IC50:
- compound: "Cc1oncc1C(=O)Nc1ccc(C(F)(F)F)cc1 [LEFLUNOMIDE]"
  assayed.target: "MCF7"
  data.value: 57
- compound: "Cc1c(-c2ccc(-c3ccccc3F)cc2)nc2ccc(F)cc2c1C(=O)O [BREQUINAR]"
  assayed.target: "MCF7"
  data.value: 25

# input for lookup
Short answer for CCNC(=O)Nc1ccc(S(=O)(=O)Oc2ccccc2CC)cc1 : IC50 was 18

###

- System: NCI-H23
- experiment.notes: Antiproliferative activity against human NCI-H23 cells assessed as cell growth inhibition measured after 48 hrs by sulforhodamine B assay
- Format: functional, cell-based
- condition.info: NCI-H23, 48 h
Each record here notes measured IC50.

- smiles.str: "Cc1c(-c2ccc(-c3ccccc3F)cc2)nc2ccc(F)cc2c1C(=O)O"
  IC50: "21.4 µM"

# input for lookup
Short answer for CCNC(=O)Nc1ccc(S(=O)(=O)Oc2ccccc2CC)cc1 : IC50 was 12.9 µM
